Hey, just so you know, these numbers are from patent US20230322958A1.

test target: T1, huNotch2-EGF6-10 (human, UniProt Q04721 219-418)
T1 construct: also called human Notch2 EGF6-10
T1 sequence: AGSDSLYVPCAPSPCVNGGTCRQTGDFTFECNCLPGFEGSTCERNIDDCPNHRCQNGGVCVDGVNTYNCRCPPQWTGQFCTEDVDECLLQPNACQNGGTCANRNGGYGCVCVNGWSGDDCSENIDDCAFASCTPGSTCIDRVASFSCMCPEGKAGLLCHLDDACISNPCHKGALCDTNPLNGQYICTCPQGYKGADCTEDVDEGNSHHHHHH
protocol notes: SPR BIAcore T200, antibody captured on protein A, 37 C
# pKd per record follows
Notebook: values listed as pKd are -log10 of the concentration (mol/L).

Worked cases, pKd given:
hu1B2.L7H10 (antibody, V domains shown, Human IgG1 backbone) VH: EVQLVESGGGLVQPGGSLKLSCAVSGFTFSDFYMEWVRQASGKGLEWVAASRNKANDFSIVYSASVKDRFTISRDDSKSTAYLQMNSLKTEDTAVYYCSRDSGRWGLDAWGQGTLVTVSS VL: DIQMTQSPSSVSASVGDRVTITCQTSEDIYSGLAWYQQKPGKSPKLLIYGASRLQDGVPSRFSGSGSGTDYTLTISSLQPEDFATYYCQQGFKYPLTFGGGTKVEIK    8.00
hu1B2.v103 (antibody, V domains shown, Human IgG1 backbone) VH: EVQLVESGGGLVQPGGSLKLSCAVSGFTFSDFYMEWVRQASGKGLEWVAAQRNKANDFSIVYSASVKDRFTISRDDSKSTLYLQMNSLKTEDTAVYYCSRDGGKWGLDAWGQGTLVTVSS VL: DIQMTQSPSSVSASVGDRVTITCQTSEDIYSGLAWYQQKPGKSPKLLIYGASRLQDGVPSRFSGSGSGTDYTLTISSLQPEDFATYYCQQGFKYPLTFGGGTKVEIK    8.51
rat.1B2 (rat/human chimeric anti-Notch2 antibody 1B2) (antibody, V domains shown, also called 1B2 Chimeric; chimeric 1B2) VH: EVKLVDYGGGLVQPGASLRLSCEVSGFTFSDFYMEWIRQAPGKGLEWIAASRNKANNFSIVYSASVKDRFTISRDTYKSILYLQMSTLKPEDTAVYYCSRDSGRWGLDAWGQGTSVIVSS VL: DIQMTQSPASLSASLGETVTIQCQTSEDIYSGLAWYHQKPGKSPQLLIYGASRLQDGVPSRFTGSGSGTQYSLKISSMQTEDEGVYFCQQGFKYPLTFGSGTKLEIK    8.28
hu1B2.L1H1.DFS (antibody, V domains shown, Human IgG1 backbone; also called hu1B2.v1.DFS) VH: EVQLVESGGGLVQPGGSLKLSCAVSGFTFSDFYMEWIRQASGKGLEWIAASRNKANDFSIVYSASVKDRFTISRDTSKSTLYLQMNSLKTEDTAVYYCSRDSGRWGLDAWGQGTLVTVSS VL: DIQMTQSPSSVSASVGDRVTITCQTSEDIYSGLAWYQQKPGKSPKLLIYGASRLQDGVPSRFSGSGSGTDYTLTISSLQPEDFATYFCQQGFKYPLTFGGGTKVEIK    8.29

Next up:
The reported pKd of the binder hu1B2.v104 (antibody, V domains shown, Human IgG1 backbone; also called hu1B2.v014) VH: EVQLVESGGGLVQPGGSLKLSCAVSGFTFSDFYMEWVRQASGKGLEWVAAQRNKANDFSIVYSASVKDRFTISRDDSKSTLYLQMNSLKTEDTAVYYCSRDGGKLALDAWGQGTLVTVSS VL: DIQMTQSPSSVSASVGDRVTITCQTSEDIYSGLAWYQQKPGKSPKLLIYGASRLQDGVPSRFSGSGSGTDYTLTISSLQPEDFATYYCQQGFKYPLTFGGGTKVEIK was 8.51
